Here, each record is paired with measured IC50 data.
Target: UniProt P06276
Sequence (P06276 whole entry): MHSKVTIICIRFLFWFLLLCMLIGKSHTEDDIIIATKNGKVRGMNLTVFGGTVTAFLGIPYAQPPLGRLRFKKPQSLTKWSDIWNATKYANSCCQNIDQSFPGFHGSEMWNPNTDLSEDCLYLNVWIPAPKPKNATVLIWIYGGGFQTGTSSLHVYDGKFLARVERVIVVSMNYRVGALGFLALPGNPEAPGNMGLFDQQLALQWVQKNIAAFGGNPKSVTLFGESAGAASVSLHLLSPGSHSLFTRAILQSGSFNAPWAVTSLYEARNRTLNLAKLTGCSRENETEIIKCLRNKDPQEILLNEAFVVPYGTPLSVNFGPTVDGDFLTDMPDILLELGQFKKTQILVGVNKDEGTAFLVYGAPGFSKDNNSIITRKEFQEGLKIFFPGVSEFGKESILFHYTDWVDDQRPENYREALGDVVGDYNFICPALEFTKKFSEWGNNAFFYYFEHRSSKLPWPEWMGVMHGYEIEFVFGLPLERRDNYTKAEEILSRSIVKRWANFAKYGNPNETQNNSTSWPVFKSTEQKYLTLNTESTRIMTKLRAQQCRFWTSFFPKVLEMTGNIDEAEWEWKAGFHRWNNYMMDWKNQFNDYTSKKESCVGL
Assay: Inhibition of human plasma BuChE using butyrylthiocholine as substrate measured after 5 mins by Ellman's method
Your answer should be a plain number; it is taken to be in µM.

Consider the following illustrative entries.
{"columns": ["Smiles Data", "Observable", "Number"],
 "data": [
  ["COc1cc2c(cc1OC)C(=O)/C(=C/c1ccc(N3CC[N+](C)(Cc4ccccc4)CC3)cc1)C2", "IC50", 0.43],
  ["COc1cc2c(cc1OC)C(=O)/C(=C/c1ccc(N3CC[N+](C)(Cc4ccccc4Br)CC3)cc1)C2", "IC50", 1.4]
]}

input: # lookup: IC50 of COc1cc2c(cc1OC)C(=O)/C(=C/c1ccc(N3CC[N+](C)(Cc4ccccc4Cl)CC3)cc1)C2
output: 2.16

input: Consider the compound shown here: CCCC[N+]1(C)CCN(c2ccc(/C=C3\Cc4cc(OC)c(OC)cc4C3=O)cc2)CC1 What is its recorded IC50?
output: 21.6

###

Target: Acetylcholinesterase (Homo sapiens)
Sequence (P22303 whole entry): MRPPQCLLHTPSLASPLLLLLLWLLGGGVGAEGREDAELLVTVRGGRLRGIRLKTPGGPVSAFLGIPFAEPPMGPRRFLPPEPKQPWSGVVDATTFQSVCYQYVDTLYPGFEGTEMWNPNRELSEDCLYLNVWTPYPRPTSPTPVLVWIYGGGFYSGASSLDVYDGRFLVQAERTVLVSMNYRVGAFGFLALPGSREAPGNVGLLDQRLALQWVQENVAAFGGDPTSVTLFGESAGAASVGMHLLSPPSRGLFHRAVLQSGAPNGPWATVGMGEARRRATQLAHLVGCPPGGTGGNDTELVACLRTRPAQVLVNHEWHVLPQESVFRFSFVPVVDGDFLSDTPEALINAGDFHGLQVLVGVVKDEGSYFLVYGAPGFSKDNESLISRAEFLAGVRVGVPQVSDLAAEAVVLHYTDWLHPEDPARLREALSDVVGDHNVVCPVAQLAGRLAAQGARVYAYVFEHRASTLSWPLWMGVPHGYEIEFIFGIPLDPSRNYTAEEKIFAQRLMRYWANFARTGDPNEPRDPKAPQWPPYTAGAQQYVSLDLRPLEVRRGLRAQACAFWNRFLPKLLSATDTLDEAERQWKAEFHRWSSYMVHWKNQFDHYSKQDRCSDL
Assay: Non competitive inhibition of human erythrocyte AChE using varying levels of acetylthiocholine iodide as substrate by Lineweaver-Burk plot analysis
Observable: pKi
Reminder that pKi means the negative base-10 logarithm of the concentration expressed in mol/L.

input: Any idea what its pKi is? The compound is COc1cc2c(cc1OC)C(=O)/C(=C/c1ccc(N3CC[N+](C)(Cc4ccccc4)CC3)cc1)C2
output: 6.30

###

Molecular target: Acetylcholinesterase (Homo sapiens)
pIC50: −log10 of the molar value.
Everything with pIC50 lower than 6 is Not fulfilled; everything else, including exactly 6, is Fulfilled.

{"columns": ["Smiles Data", "Answer Label"],
 "data": [
  ["COc1cc2c(cc1OC)C(=O)/C(=C/c1ccc(N3CC[N+](C)(Cc4cccc(Br)c4)CC3)cc1)C2", "Not fulfilled"],
  ["COc1cc2c(cc1OC)C(=O)/C(=C/c1ccc(N3CC[N+](C)(Cc4ccc(Br)cc4)CC3)cc1)C2", "Not fulfilled"],
  ["COc1cc2c(cc1OC)C(=O)/C(=C/c1ccc(N3CC[N+](C)(Cc4ccccc4Cl)CC3)cc1)C2", "Fulfilled"],
  ["CCCC[N+]1(C)CCN(c2ccc(/C=C3\\Cc4cc(OC)c(OC)cc4C3=O)cc2)CC1", "Fulfilled"],
  ["COc1cc2c(cc1OC)C(=O)/C(=C/c1ccc(N3CC[N+](C)(Cc4ccccn4)CC3)cc1)C2", "Fulfilled"]
]}

input: Please indicate if the recorded pIC50 for COc1cc2c(cc1OC)C(=O)/C(=C/c1ccc(N3CCN(C)CC3)cc1)C2 meets or exceeds 6.
output: Fulfilled

input: pIC50 >= 6 for CCCCCC[N+]1(C)CCN(c2ccc(/C=C3\Cc4cc(OC)c(OC)cc4C3=O)cc2)CC1 ?
output: Not fulfilled

input: Tell me whether pIC50 is at least 6 here: CCCCC[N+]1(C)CCN(c2ccc(/C=C3\Cc4cc(OC)c(OC)cc4C3=O)cc2)CC1
output: Fulfilled

Entry source: ChEMBL document CHEMBL4765271
